This collection of values is drawn from ChEMBL document CHEMBL1152498.

Measured log Ks of individual entries
system: Calf thymus DNA; assay: Binding affinity to calf thymus double stranded DNA at pH 7 by fluorometric titration method; type: nucleic-acid assay; settings: Bos taurus
Enter a number only.

Guide cases for log Ks, answers given:
>  <sample smiles>
COc1ccc2c(c1)SC1=N/C(=C\c3oc4ccccc4[n+]3C)C=C(C)N12.[O-][Cl+3]([O-])([O-])[O-]

>  <log Ks>
5

$$$$
>  <sample smiles>
CC1=C/C(=C/c2sc3ccccc3[n+]2C)N=C2Sc3cc(OCCO)ccc3N12.[O-][Cl+3]([O-])([O-])[O-]

>  <log Ks>
4.8

$$$$
>  <sample smiles>
CC1=C/C(=C/c2oc3ccccc3[n+]2C)C(C#N)=C2Sc3ccccc3N12.[O-][Cl+3]([O-])([O-])[O-]

>  <log Ks>
5.1

$$$$

### Prompt Quick one: give measured log Ks for CCOc1ccc2c(c1)SC1=N/C(=C\c3oc4ccccc4[n+]3C)C=C(C)N12.[O-][Cl+3]([O-])([O-])[O-]
### Response 4.7

### Prompt Give the measured log Ks for CC1=C/C(=C/c2oc3ccccc3[n+]2C)N=C2Sc3cc(OCCO)ccc3N12.[O-][Cl+3]([O-])([O-])[O-]
### Response 4.6

### Prompt Assign log Ks to the following record: CC1=C/C(=C/c2oc3ccccc3[n+]2C)N=C2Sc3cc(Cl)ccc3N12.[O-][Cl+3]([O-])([O-])[O-]
### Response 4.6

### Prompt Look up log Ks of COc1ccc2c(c1)SC1=N/C(=C\c3sc4ccccc4[n+]3C)C=C(C)N12.[O-][Cl+3]([O-])([O-])[O-] and report it.
### Response 4.5

* * *

test system: HT-29; test: Cytotoxicity against human HT-29 cells after 72 hrs by MTT assay; type: functional, cell-based; conditions: HT-29, 72 h
observation type: IC50 (µM)
// note: answer is a bare numeric in µM

>  <sample smiles>
COc1ccc2c(c1)SC1=N/C(=C\c3oc4ccccc4[n+]3C)C=C(C)N12.[O-][Cl+3]([O-])([O-])[O-]

>  <tgt>
HT-29

>  <IC50 [µM]>
0.5

$$$$
>  <sample smiles>
CC1=C/C(=C/c2oc3ccccc3[n+]2C)N=C2Sc3cc(Cl)ccc3N12.[O-][Cl+3]([O-])([O-])[O-]

>  <tgt>
HT-29

>  <IC50 [µM]>
5.1

$$$$
>  <sample smiles>
CC1=C/C(=C/c2oc3ccccc3[n+]2C)C(C#N)=C2Sc3ccccc3N12.[O-][Cl+3]([O-])([O-])[O-]

>  <tgt>
HT-29

>  <IC50 [µM]>
5.9

$$$$
>  <sample smiles>
CC1=C/C(=C/c2sc3ccccc3[n+]2C)N=C2C=CC=CN12.[O-][Cl+3]([O-])([O-])[O-]

>  <tgt>
HT-29

>  <IC50 [µM]>
5.2

$$$$

### Prompt Supply reported IC50 belonging to this compound: CC1=C/C(=C/c2sc3ccccc3[n+]2C)N=C2Sc3cc(OCCO)ccc3N12.[O-][Cl+3]([O-])([O-])[O-]
### Response 1.1

### Prompt Quickly give me recorded IC50 for CCOc1ccc2c(c1)SC1=N/C(=C\c3oc4ccccc4[n+]3C)C=C(C)N12.[O-][Cl+3]([O-])([O-])[O-]
### Response 0.6

### Prompt Kindly indicate its recorded IC50. Item: CC1=C/C(=C/c2oc3ccccc3[n+]2C)N=C2Sc3cc(OCCO)ccc3N12.[O-][Cl+3]([O-])([O-])[O-]
### Response 7.2

### Prompt Dear colleague, please send me the reported IC50 for COc1ccc2c(c1)SC1=N/C(=C\c3sc4ccccc4[n+]3C)C=C(C)N12.[O-][Cl+3]([O-])([O-])[O-] when you can.
### Response 0.5
